Assay: Pharmacokinetic study in mice, plasma and brain structures, LC/MS/MS
Format: in vivo, Swiss albino mice
Settings: Swiss albino, mouse, plasma, ip, 0.625 mg/kg i.p., read-out: AUC0→t, plasma (converted)
quantity: AUC(0-t) (ng·h/mL)
Number in ng·h/mL, nothing else.

Entry "Cn1c(=O)c2c(nc3n(CCCCN4CCN(c5ccccc5F)CC4)ccn23)n(C)c1=O" — recorded AUC(0-t) = 17.7

====

Experiment: Pharmacokinetic study in mice, plasma and brain structures, LC/MS/MS
Type: in vivo, Swiss albino mice
Conditions: Swiss albino, mouse, frontal cortex, ip, 0.625 mg/kg, 0.625 mg/kg i.p., 5 min, read-out: Concentration, frontal cortex (individual animals)
quantity: concentration at 5 min
Please format your answer as a value with the unit trailing.

Entry Cn1c(=O)c2c(nc3n(CCCCN4CCN(c5ccccc5F)CC4)ccn23)n(C)c1=O [AZ-853] — recorded concentration at 5 min = 268 ng/mL

====

Assay: Pharmacokinetic study in mice, plasma and brain structures, LC/MS/MS
Type: in vivo, Swiss albino mice
Settings: Swiss albino, mouse, striatum, ip, 0.625 mg/kg, 0.625 mg/kg i.p., 30 min, read-out: Concentration, striatum (individual animals)
quantity: concentration at 30 min
Please format your answer as a value with the unit trailing.

Entry "Cn1c(=O)c2c(nc3n(CCCCN4CCN(c5ccccc5F)CC4)ccn23)n(C)c1=O" — recorded concentration at 30 min = 307 ng/mL

====

Assay: Pharmacokinetic study in mice, plasma and brain structures, LC/MS/MS
Type: in vivo, Swiss albino mice
Conditions: Swiss albino, mouse, striatum, ip, 0.625 mg/kg, 0.625 mg/kg i.p., 15 min, read-out: Concentration, striatum (individual animals)
quantity: concentration at 15 min (ng/mL)
Number in ng/mL, nothing else.

Entry Cn1c(=O)c2c(nc3n(CCCCN4CCN(c5ccccc5F)CC4)ccn23)n(C)c1=O [AZ-853] — recorded concentration at 15 min = 398

====

Assay: Pharmacokinetic study in mice, plasma and brain structures, LC/MS/MS
Assay type: in vivo, Swiss albino mice
Details: Swiss albino, mouse, frontal cortex, ip, 1.25 mg/kg, 1.25 mg/kg i.p., 30 min, read-out: Concentration, frontal cortex (individual animals)
quantity: concentration at 30 min

Entry "Cn1c(=O)c2c(nc3n(CCCCN4CCN(c5cccc(C(F)(F)F)c5)CC4)ccn23)n(C)c1=O" — recorded concentration at 30 min = 209 ng/mL

====

Assay: Pharmacokinetic study in mice, plasma and brain structures, LC/MS/MS
Format: in vivo, Swiss albino mice
Settings: Swiss albino, mouse, striatum, ip, 1.25 mg/kg, 1.25 mg/kg i.p., read-out: Cmax, striatum
quantity: Cmax (ng/g)
Number in ng/g, nothing else.

Entry "Cn1c(=O)c2c(nc3n(CCCCN4CCN(c5cccc(C(F)(F)F)c5)CC4)ccn23)n(C)c1=O" — recorded Cmax = 333

====

Assay: Pharmacokinetic study in mice, plasma and brain structures, LC/MS/MS
Type: in vivo, Swiss albino mice
Conditions: Swiss albino, mouse, frontal cortex, ip, 0.625 mg/kg, 0.625 mg/kg i.p., 60 min, read-out: Concentration, frontal cortex (Mean)
quantity: concentration at 60 min

Entry "Cn1c(=O)c2c(nc3n(CCCCN4CCN(c5ccccc5F)CC4)ccn23)n(C)c1=O" — recorded concentration at 60 min = 66 ng/mL

====

Assay: Pharmacokinetic study in mice, plasma and brain structures, LC/MS/MS
Assay type: in vivo, Swiss albino mice
Conditions: Swiss albino, mouse, hippocampus, ip, 1.25 mg/kg, 1.25 mg/kg i.p., 480 min, read-out: Concentration, hippocampus (individual animals)
quantity: concentration at 480 min
Please format your answer as a value with the unit trailing.

Entry "Cn1c(=O)c2c(nc3n(CCCCN4CCN(c5cccc(C(F)(F)F)c5)CC4)ccn23)n(C)c1=O" — recorded concentration at 480 min = 15.8 ng/mL

====

Test: Pharmacokinetic study in mice, plasma and brain structures, LC/MS/MS
Format: in vivo, Swiss albino mice
Conditions: Swiss albino, mouse, striatum, ip, 0.625 mg/kg, 0.625 mg/kg i.p., 15 min, read-out: Concentration, striatum (Mean)
quantity: concentration at 15 min

Entry Cn1c(=O)c2c(nc3n(CCCCN4CCN(c5ccccc5F)CC4)ccn23)n(C)c1=O [AZ-853] — recorded concentration at 15 min = 404 ng/mL

====

Assay: Pharmacokinetic study in mice, plasma and brain structures, LC/MS/MS
Format: in vivo, Swiss albino mice
Conditions: Swiss albino, mouse, plasma, ip, 0.625 mg/kg, 0.625 mg/kg i.p., 240 min, read-out: Concentration, plasma (Mean)
quantity: concentration at 240 min (ng/mL)
Number in ng/mL, nothing else.

Entry "Cn1c(=O)c2c(nc3n(CCCCN4CCN(c5ccccc5F)CC4)ccn23)n(C)c1=O" — recorded concentration at 240 min = 0.38

====

Assay: Pharmacokinetic study in mice, plasma and brain structures, LC/MS/MS
Type: in vivo, Swiss albino mice
Conditions: Swiss albino, mouse, plasma, ip, 0.625 mg/kg, 0.625 mg/kg i.p., plasma, read-out: Vd/F
quantity: Vd/F

Entry Cn1c(=O)c2c(nc3n(CCCCN4CCN(c5ccccc5F)CC4)ccn23)n(C)c1=O [AZ-853] — recorded Vd/F = > 67 L/kg

====

Assay: Pharmacokinetic study in mice, plasma and brain structures, LC/MS/MS
Assay type: in vivo, Swiss albino mice
Details: Swiss albino, mouse, striatum, ip, 1.25 mg/kg, 1.25 mg/kg i.p., 5 min, read-out: Concentration, striatum (individual animals)
quantity: concentration at 5 min (ng/mL)
Number in ng/mL, nothing else.

Entry "Cn1c(=O)c2c(nc3n(CCCCN4CCN(c5cccc(C(F)(F)F)c5)CC4)ccn23)n(C)c1=O" — recorded concentration at 5 min = 190

====

Experiment: Pharmacokinetic study in mice, plasma and brain structures, LC/MS/MS
Assay type: in vivo, Swiss albino mice
Settings: Swiss albino, mouse, frontal cortex, ip, 1.25 mg/kg, 1.25 mg/kg i.p., 5 min, read-out: Concentration, frontal cortex (Mean)
quantity: concentration at 5 min
Please format your answer as a value with the unit trailing.

Entry "Cn1c(=O)c2c(nc3n(CCCCN4CCN(c5cccc(C(F)(F)F)c5)CC4)ccn23)n(C)c1=O" — recorded concentration at 5 min = 355 ng/mL

====

Assay: Pharmacokinetic study in mice, plasma and brain structures, LC/MS/MS
Assay type: in vivo, Swiss albino mice
Conditions: Swiss albino, mouse, plasma, ip, 1.25 mg/kg, 1.25 mg/kg i.p., read-out: Cmax, plasma
Procedure: Blood samples from the Swiss albino mice were collected at 0 (pre-dose), 5, 15, 30, 60, 120, 240 and 480 min after a compound administration. […] The ion source parameters were as follows: ion spray voltage: 5500 V; nebulizer gas (gas 1): 20 psi; turbo gas (gas 2): 25 psi; temperature of the heated nebulizer: 400°C; curtain gas: 40 psi; collision gas: 6 psi. […] Quantification was done via peak area ratio. […]
quantity: Cmax
Please format your answer as a value with the unit trailing.

Entry "Cn1c(=O)c2c(nc3n(CCCCN4CCN(c5cccc(C(F)(F)F)c5)CC4)ccn23)n(C)c1=O" — recorded Cmax = 59.6 ng/mL

====

Assay: Pharmacokinetic study in mice, plasma and brain structures, LC/MS/MS
Assay type: in vivo, Swiss albino mice
Settings: Swiss albino, mouse, striatum, ip, 0.625 mg/kg i.p., read-out: AUC0→t, striatum (converted)
quantity: AUC(0-t) (ng·h/mL)
Number in ng·h/mL, nothing else.

Entry Cn1c(=O)c2c(nc3n(CCCCN4CCN(c5ccccc5F)CC4)ccn23)n(C)c1=O [AZ-853] — recorded AUC(0-t) = 352

====

Assay: Pharmacokinetic study in mice, plasma and brain structures, LC/MS/MS
Type: in vivo, Swiss albino mice
Conditions: Swiss albino, mouse, plasma, ip, 0.625 mg/kg, 0.625 mg/kg i.p., 15 min, read-out: Concentration, plasma (individual animals)
quantity: concentration at 15 min (ng/mL)
Number in ng/mL, nothing else.

Entry "Cn1c(=O)c2c(nc3n(CCCCN4CCN(c5ccccc5F)CC4)ccn23)n(C)c1=O" — recorded concentration at 15 min = 12.2

====

Assay: Pharmacokinetic study in mice, plasma and brain structures, LC/MS/MS
Assay type: in vivo, Swiss albino mice
Details: Swiss albino, mouse, hippocampus, ip, 0.625 mg/kg i.p., read-out: MRT, hippocampus (converted)
quantity: MRT (h)
Number in h, nothing else.

Entry Cn1c(=O)c2c(nc3n(CCCCN4CCN(c5ccccc5F)CC4)ccn23)n(C)c1=O [AZ-853] — recorded MRT = 1.19

====

Experiment: Pharmacokinetic study in mice, plasma and brain structures, LC/MS/MS
Format: in vivo, Swiss albino mice
Details: Swiss albino, mouse, frontal cortex, ip, 0.625 mg/kg, 0.625 mg/kg i.p., 240 min, read-out: Concentration, frontal cortex (individual animals)
quantity: concentration at 240 min (ng/mL)
Number in ng/mL, nothing else.

Entry Cn1c(=O)c2c(nc3n(CCCCN4CCN(c5ccccc5F)CC4)ccn23)n(C)c1=O [AZ-853] — recorded concentration at 240 min = 20.8
